# LD50 at 168 h per record follows
Test: Toxicity test in mice, mortality after 7 days (Litchfield and Wilcoxon)
Set-up: species or system mice (ddY-SLC)
Conditions: mouse, in vivo, male mice

[
  {
    "molecule": "CCSCc1cc(OC(=O)N(C)C)no1",
    "LD50 at 168 h": "125 mg/kg"
  },
  {
    "molecule": "CSCc1cc(OC(=O)N(C)C)no1",
    "LD50 at 168 h": "110 mg/kg"
  }
]

* * *

Assay: Toxicity test in mice, mortality after 7 days (Litchfield and Wilcoxon)
Design: species or system mice (ddY-SLC)
Conditions: mouse, in vivo, male/female mice
attribute.measured: LD50 at 168 h (mg/kg)

[
  {
    "molecule": "Cc1cc(OC(=O)N(C)C)no1 [3-Dimethylcarbamoyloxy-5-methylisoxazole, reference compound]",
    "attribute.measured": "LD50 at 168 h",
    "measurement.units": "mg/kg",
    "data.value": 31.2
  }
]
